Values compiled from the supplement of paper PMC10702517.

Experiment: chemical recovery from spiked human plasma; higher = better extraction
Conditions: pooled human plasma; extraction method: SPE only (HLB 96-well)
Each entry gets Not fulfilled if its chemical recovery stays under 30%, and Fulfilled if its chemical recovery is 30% or above.

# count of solved cases: 2
Ask | Can `CNC(=O)c1cc(Cl)cc(C)c1NC(=O)c1cc(Br)nn1-c1ncccc1Cl` be said to have chemical recovery at or above 30%?
Reply | Fulfilled

Ask | Can `O=c1c2ccccc2[nH]c2ccccc12` be said to have chemical recovery at or above 30%?
Reply | Fulfilled

More entries:
Ask | Can `CNC(=O)c1cc(Oc2ccc(NC(=O)Nc3ccc(Cl)c(C(F)(F)F)c3)cc2)ccn1` be said to have chemical recovery at or above 30%?
Reply | Fulfilled

Ask | Can `Cc1ccc2cc(C)ccc2c1` be said to have chemical recovery at or above 30%?
Reply | Not fulfilled

Ask | Can `O=S(=O)(O)C(F)(F)C(F)(F)C(F)(F)C(F)(F)C(F)(F)C(F)(F)F` be said to have chemical recovery at or above 30%?
Reply | Fulfilled

Ask | Can `C#CCN1C(=O)COc2cc(F)c(N3C(=O)C4=C(CCCC4)C3=O)cc21` be said to have chemical recovery at or above 30%?
Reply | Fulfilled

Ask | Can `O=C(Nc1ccc(F)cc1F)c1cccnc1Oc1cccc(C(F)(F)F)c1` be said to have chemical recovery at or above 30%?
Reply | Fulfilled

Ask | Can `Nc1ccc(-c2ccc(N)c(Cl)c2)cc1Cl` be said to have chemical recovery at or above 30%?
Reply | Fulfilled

Ask | Can Cn1c(N)nc2c3cccnc3ccc21 [2-Amino-3-methyl-imidazo[4,5-f]quinoline-(IQ)] be said to have chemical recovery at or above 30%?
Reply | Not fulfilled

Ask | Can CCCCC(CC)COC(=O)C=Cc1ccc(OC)cc1 (stereo unspecified) [Octyl-methoxycinnamate] be said to have chemical recovery at or above 30%?
Reply | Not fulfilled

Ask | Can `CC(C)c1ccc(NC(=O)N(C)C)cc1` be said to have chemical recovery at or above 30%?
Reply | Fulfilled

Ask | Can CC(C)CCCCCCOC(=O)C1CCCCC1C(=O)OCCCCCCC(C)C (stereo unspecified) be said to have chemical recovery at or above 30%?
Reply | Not fulfilled

Ask | Can `CCC(CC)Nc1c([N+](=O)[O-])cc(C)c(C)c1[N+](=O)[O-]` be said to have chemical recovery at or above 30%?
Reply | Fulfilled

Ask | Can `CC[C@@H](C(=O)[C@@H](C)[C@@H](O)[C@H](C)[C@@H]1O[C@@H]([C@@H](CC)C(=O)O)CC[C@@H]1C)[C@H]1O[C@]2(C=C[C@@H](O)[C@]3(CC[C@@](C)([C@H]4CC[C@](O)(CC)[C@H](C)O4)O3)O2)[C@H](C)C[C@@H]1C` be said to have chemical recovery at or above 30%?
Reply | Not fulfilled

Ask | Can `CSc1nnc(C(C)(C)C)c(=O)n1N` be said to have chemical recovery at or above 30%?
Reply | Fulfilled

Ask | Can `CC1(C)C(=O)NC(=O)NC1=O` be said to have chemical recovery at or above 30%?
Reply | Not fulfilled

Ask | Can `CC1CCN(CCCC(=O)c2ccc(F)cc2)CC1` be said to have chemical recovery at or above 30%?
Reply | Fulfilled

Ask | Can CC(C)NCC(O)COc1cccc2ccccc12 (stereo unspecified) be said to have chemical recovery at or above 30%?
Reply | Fulfilled

Ask | Can `Cc1ccc2[nH]nnc2c1` be said to have chemical recovery at or above 30%?
Reply | Fulfilled

Ask | Can `Cc1c([N+](=O)[O-])c(C)c([N+](=O)[O-])c(C(C)(C)C)c1[N+](=O)[O-]` be said to have chemical recovery at or above 30%?
Reply | Fulfilled

Ask | Can NNc1ccccn1 [2-Hydrazinopyridine] be said to have chemical recovery at or above 30%?
Reply | Not fulfilled

Ask | Can `CCCCCCCCCCS(=O)(=O)O` be said to have chemical recovery at or above 30%?
Reply | Fulfilled

Ask | Can `CCCCCCCCCCCCCC[N+](C)(C)C` be said to have chemical recovery at or above 30%?
Reply | Fulfilled

Ask | Can `Oc1ccc(Cc2ccc(O)cc2)cc1` be said to have chemical recovery at or above 30%?
Reply | Fulfilled

Ask | Can CC(=O)c1cc2c(cc1C)C(C)(C)C(C)CC2(C)C (stereo unspecified) [Tonalide] be said to have chemical recovery at or above 30%?
Reply | Not fulfilled

* * *

Test: chemical recovery from spiked human plasma; higher = better extraction
Settings: pooled human plasma; extraction method: PES+SPE (3 d PDMS equilibration then HLB SPE)
Property Label: chemical recovery (%)
Reply numerically in %, unit not repeated.

Use these answered entries as a reference point.
Ask | Could you tell me which chemical recovery is on file for Nc1ccc(-c2ccc(N)cc2)cc1 [Benzidine] ?
Reply | 0.64

Ask | Could you tell me which chemical recovery is on file for O=C(O)COc1nc(Cl)c(Cl)cc1Cl [Triclopyr] ?
Reply | 43

More entries:
Ask | Could you tell me which chemical recovery is on file for NC(=O)N1c2ccccc2C=Cc2ccccc21 [Carbamazepine] ?
Reply | 61.4

Ask | Could you tell me which chemical recovery is on file for O=S(=O)(O)NC1CCCCC1 [Cyclamate] ?
Reply | 5.77

Ask | Could you tell me which chemical recovery is on file for O=S(=O)(O)C(F)(F)C(F)(F)C(F)(F)C(F)(F)C(F)(F)F [Perfluoropentanesulfonic-acid] ?
Reply | 47.1

Ask | Could you tell me which chemical recovery is on file for O=C(Nc1ccccc1)N(Cc1ccc(Cl)cc1)C1CCCC1 [Pencycuron] ?
Reply | 54

Ask | Could you tell me which chemical recovery is on file for CN(C1CCCCC1)C1CCCCC1 [N-Methyl-dicyclohexylamine] ?
Reply | 0.654

Ask | Could you tell me which chemical recovery is on file for O=C1Cc2cc(CCN3CCN(c4nsc5ccccc45)CC3)c(Cl)cc2N1 [Ziprasidone] ?
Reply | 22.9

Ask | Could you tell me which chemical recovery is on file for CC(C)(Oc1ccc(Cl)cc1)C(=O)O [Clofibric acid] ?
Reply | 44.8

Ask | Could you tell me which chemical recovery is on file for ClC=C(c1ccc(Cl)cc1)c1ccc(Cl)cc1 [4,4'-DDMU] ?
Reply | 54.3

Ask | Could you tell me which chemical recovery is on file for CCc1cccc(C)c1N(C(=O)CCl)C(C)COC (stereo not given) [Metolachlor] ?
Reply | 37.9

Ask | Could you tell me which chemical recovery is on file for Clc1cc(Cl)c(-c2cc(Cl)c(Cl)c(Cl)c2Cl)cc1Cl [PCB180] ?
Reply | 40.2

Ask | Could you tell me which chemical recovery is on file for Nc1ccc2c(n1)[nH]c1ccccc12 [2-Amino-9H-pyrido[2,3-b]indole-(AalphaC)] ?
Reply | 17.4

Ask | Could you tell me which chemical recovery is on file for CCCC(Cn1cncn1)c1ccc(Cl)cc1Cl (stereo not given) [Penconazole] ?
Reply | 51.3

Ask | Could you tell me which chemical recovery is on file for Nc1ccc(-c2ccc(N)c(Cl)c2)cc1Cl [3,3'-Dichlorobenzidine] ?
Reply | 39.1

Ask | Could you tell me which chemical recovery is on file for Cc1nc(N(C)C)nc(OC(=O)N(C)C)c1C [Pirimicarb] ?
Reply | 55.6

Ask | Could you tell me which chemical recovery is on file for CC/C(=N\OC/C=C/Cl)C1=C(O)CC(C2CCOCC2)CC1=O (stereo not given) [Tepraloxydim] ?
Reply | 45.7

Ask | Could you tell me which chemical recovery is on file for CC(C)(C#N)c1cc(Cn2cncn2)cc(C(C)(C)C#N)c1 [Anastrozole] ?
Reply | 51.4

Ask | Could you tell me which chemical recovery is on file for Sc1ncnc2nc[nH]c12 [6-Mercaptopurine] ?
Reply | 0.00575

Ask | Could you tell me which chemical recovery is on file for COc1cc(OC)nc(NC(=O)NS(=O)(=O)N(C)S(C)(=O)=O)n1 [Amidosulfuron] ?
Reply | 46.6

* * *

List of chemical recovery by SPE of plasma values.
Test: chemical recovery by SPE of plasma after PDMS sampling; higher = better extraction
Settings: pooled human plasma; extraction method: HLB SPE of plasma after PES; equilibration time (d): 3
Reply numerically in %, unit not repeated.

Use these answered entries as a reference point.
Ask | Could you tell me which chemical recovery by SPE of plasma is on file for Cc1cc(Cc2ccc(N)c(C)c2)ccc1N [4,4'-Methylene-bis(2-methyl aniline)] ?
Reply | 4.74

Ask | Could you tell me which chemical recovery by SPE of plasma is on file for O=P1(NCCCl)OCCCN1CCCl (stereo not drawn) [Ifosfamide] ?
Reply | 56.1

Ask | Could you tell me which chemical recovery by SPE of plasma is on file for CO/C=C(/C(=O)OC)c1ccccc1COc1cccc(C(F)(F)F)n1 [Picoxystrobin] ?
Reply | 2.06

Ask | Could you tell me which chemical recovery by SPE of plasma is on file for C=CC[C@@H]1/C=C(\C)C[C@H](C)C[C@H](OC)[C@H]2O[C@@](O)(C(=O)C(=O)N3CCCC[C@H]3C(=O)O[C@H](/C(C)=C/[C@@H]3CC[C@@H](O)[C@H](OC)C3)[C@H](C)[C@@H](O)CC1=O)[C@H](C)C[C@@H]2OC [Tacrolimus] ?
Reply | 1.87

Now for the compound whose chemical recovery by SPE of plasma we want.
Ask | Could you tell me which chemical recovery by SPE of plasma is on file for C[C@]12CC(=O)[C@H]3[C@@H](CCC4=CC(=O)CC[C@@]43C)[C@@H]1CC[C@@H]2O [11-Ketotestosterone] ?
Reply | 30.6
